- Tgt: Lysosomal acid glucosylceramidase (Homo sapiens) (UniProt P04062)
- Sequence (P04062 whole entry, looked up): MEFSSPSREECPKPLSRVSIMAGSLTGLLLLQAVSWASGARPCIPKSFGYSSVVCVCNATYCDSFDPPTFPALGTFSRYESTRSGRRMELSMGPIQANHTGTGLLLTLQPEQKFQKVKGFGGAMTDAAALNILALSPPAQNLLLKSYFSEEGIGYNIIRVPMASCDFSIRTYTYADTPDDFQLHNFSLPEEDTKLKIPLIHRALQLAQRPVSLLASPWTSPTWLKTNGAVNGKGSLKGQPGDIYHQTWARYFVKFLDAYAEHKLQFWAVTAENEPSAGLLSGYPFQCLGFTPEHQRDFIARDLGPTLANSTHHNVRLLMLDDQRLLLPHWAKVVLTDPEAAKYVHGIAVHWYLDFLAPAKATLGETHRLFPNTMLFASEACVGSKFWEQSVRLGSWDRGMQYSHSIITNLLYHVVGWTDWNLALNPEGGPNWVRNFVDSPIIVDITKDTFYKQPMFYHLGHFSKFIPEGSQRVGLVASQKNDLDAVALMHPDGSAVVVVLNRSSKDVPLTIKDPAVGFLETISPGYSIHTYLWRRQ
- Assay text: Glucocerebrosidase;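 also: potency is read from the fitted curve at half-maximal effect; the screen sought inhibitors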
- Stated conditions: purified enzyme, resorufin glucoside fluorescence (screen aimed at inhibitors), 20 min
Screen size: about 48,000 compounds; about 550 (1.1%) were called active. Inconclusive results (about 4%) are left out. Rule as the data show it: active = potency below about 15 µM; inconclusive = mostly about 16 µM to 33 µM; inactive = weaker than that. The list comes from a sample in which actives are over-represented; it also holds close analogues and randomly drawn compounds.
Labels: active, inactive

>>> df
                                    compound  discrete_label
 0            CCCC(=O)Nc1ccc2c(c1)nc1n2CCSC1        inactive
 1     CCCn1c(SCC(=O)Nc2c(C)cccc2C)nnc1C(C)C        inactive
 2  CC(C)c1nc2oc3c(N4CCN(C)CC4)ncnc3c2c2c1CCC2          active
 3  CCC(=O)N(Cc1cc2cc(OC)ccc2[nH]c1=O)c1ccccc1C        inactive
 4     CC(=O)Nc1ccc(S(=O)(=O)NCCc2ccccc2)cc1        inactive
 5  COc1ccc2nc(NC3=NCN(CC4CCCO4)CN3)nc(C)c2c1 (stereo not given)        inactive
 6  COc1ccc(N2CCN(C(=O)CSc3nnc4ncccn34)CC2)cc1        inactive
 7  COc1ccccc1OCCC(=O)OCC(=O)NC(=O)NC(C)(C)C        inactive
 8  COc1ccc(-c2nnc(SCC(=O)c3ccco3)n2-c2ccccc2)cc1        inactive
 9  CS(=O)(=O)N(CC(=O)N1CCN(c2cccc(Cl)c2)CC1)c1ccccc1        inactive
10  COc1ccc(CC(=O)Nc2ccc3c(c2)CCC3)cc1S(=O)(=O)N1CCOCC1        inactive
11    Cn1c(=O)n(C)c(=O)n(CC(=O)N2CCCCC2)c1=O        inactive
12     Cc1cc(C)nc(NC(=O)Nc2ccccc2C(F)(F)F)n1        inactive
13  COc1ccc(C(c2nnnn2Cc2cccs2)N2CCN(c3ccccc3)CC2)cc1OC (stereo not given)        inactive
14  CC1(C)CC(CCC(=O)Nc2ccccc2Cl)C(=O)O1 (stereo not given)        inactive
15  CCOC(=O)c1c(C)[nH]c(C)c1C(=O)CSc1nc(N)cc(N)n1        inactive
16   COc1c(C)cccc1C(=O)Nc1cc(Cl)ccc1N1CCOCC1        inactive
17       CCCn1c(=O)c(-c2ccccc2)c(O)c2ccccc21        inactive
18    CC(=O)N1CSCC1C(=O)O (stereo not given)        inactive
19  CCN(CC)CCN1C(=O)C(=O)/C(=C(/O)c2ccc(OC)c(OC)c2)C1c1ccccn1 (stereo not given)        inactive
20  Cn1c(SCC(=O)Nc2cccc(NC(=O)c3cccs3)c2)nnc1-c1ccncc1        inactive
21  CC(NC(=O)c1cc(-c2ccccc2)on1)c1ccccc1 (stereo not given)        inactive
22  Cc1ccc(C(C(=O)NCc2ccco2)N(CC2CCCO2)C(=O)Cn2nnc3ccccc32)cc1 (stereo not given)        inactive
23  Cc1cc(C(=O)COC(=O)CCCN2C(=O)c3ccccc3C2=O)c(C)n1C        inactive
24          Cc1occc1C(=O)Nc1cccc(Cn2cccn2)c1        inactive
25  O=C(Nc1ccccc1C(F)(F)F)c1cc(-c2ccc(O)cc2)on1          active
26  CC(C)(C)c1nc(NCC2CCCO2)c2nnn(Cc3ccccc3)c2n1 (stereo not given)        inactive
27   CCN1C(=O)/C(=C\N2CCN(c3ccccc3)CC2)SC1=S        inactive
28  CN1CCN(c2nc3c(c(=O)[nH]c(=O)n3C)n2Cc2cccc3ccccc23)CC1        inactive
29           N#CC(C(N)=O)=C1CCC2(CC1)OCCCCO2        inactive
